Hello, the source for this data is ChEMBL document CHEMBL5143685, in case you need it.

- Tested on: Klebsiella pneumoniae
- TEST METHOD NOTES: Antibacterial activity against Klebsiella pneumoniae ATCC 700603 assessed as inhibition of bacterial growth measured after 18 hrs by resazurin dye based analysis
- Assay type: functional

>  <SUBSTANCE SMILES>
C[C@]1(C(=O)NCCCNCCCCNCCCNC(=O)[C@@]2(C)CCC[C@]3(C)c4cc(O)ccc4CC[C@@H]23)CCC[C@]2(C)c3cc(O)ccc3CC[C@@H]12.O=C(O)C(F)(F)F.O=C(O)C(F)(F)F

>  <MIC>
> 33.9 µM

$$$$
>  <SUBSTANCE SMILES>
C[C@]1(C(=O)NCCCNCCCCCCCN)CCC[C@]2(C)c3cc(O)ccc3CC[C@@H]12.O=C(O)C(F)(F)F.O=C(O)C(F)(F)F

>  <MIC>
> 47.6 µM

$$$$
>  <SUBSTANCE SMILES>
COC(=O)[C@@]1(C)CCC[C@]2(C)c3cc(OC(=O)CCCNCCCCCCCCCCCCNCCCNC(=O)Oc4ccc5c(c4)[C@@]4(C)CCC[C@](C)(C(=O)OC)[C@@H]4CC5)ccc3CC[C@@H]12.O=C(O)C(F)(F)F.O=C(O)C(F)(F)F

>  <MIC>
> 27.3 µM

$$$$
>  <SUBSTANCE SMILES>
CCCCCNC(=O)[C@@]1(C)CCC[C@]2(C)c3cc(OC(=O)CCCNCCCCCCCNCCCNC(=O)Oc4ccc5c(c4)[C@@]4(C)CCC[C@](C)(C(=O)NCCCCC)[C@@H]4CC5)ccc3CC[C@@H]12.O=C(O)C(F)(F)F.O=C(O)C(F)(F)F

>  <MIC>
> 26.4 µM

$$$$
>  <SUBSTANCE SMILES>
CCCCCNC(=O)[C@@]1(C)CCC[C@]2(C)c3cc(OC(=O)CCCNCCCCNCCCNC(=O)Oc4ccc5c(c4)[C@@]4(C)CCC[C@](C)(C(=O)NCCCCC)[C@@H]4CC5)ccc3CC[C@@H]12.O=C(O)C(F)(F)F.O=C(O)C(F)(F)F

>  <MIC>
> 27.4 µM

$$$$
>  <SUBSTANCE SMILES>
C[C@]1(C(=O)O)CCC[C@]2(C)c3cc(OC(=O)CCCNCCCCCCCCNCCCNC(=O)Oc4ccc5c(c4)[C@@]4(C)CCC[C@](C)(C(=O)O)[C@@H]4CC5)ccc3CC[C@@H]12.O=C(O)C(F)(F)F.O=C(O)C(F)(F)F

>  <MIC>
> 29.4 µM

$$$$
>  <SUBSTANCE SMILES>
COC(=O)[C@@]1(C)CCC[C@]2(C)c3cc(OC(=O)CCCNCCCCCCCCNCCCNC(=O)Oc4ccc5c(c4)[C@@]4(C)CCC[C@](C)(C(=O)OC)[C@@H]4CC5)ccc3CC[C@@H]12.O=C(O)C(F)(F)F.O=C(O)C(F)(F)F

>  <MIC>
> 28.7 µM

$$$$
>  <SUBSTANCE SMILES>
C[C@]1(C(=O)O)CCC[C@]2(C)c3cc(OC(=O)NCCCNCCCCCCCCCCCCN)ccc3CC[C@@H]12.O=C(O)C(F)(F)F.O=C(O)C(F)(F)F

>  <MIC>
> 32.8 µM

$$$$
>  <SUBSTANCE SMILES>
C[C@]1(C(=O)NCCCNCCCCCCCNCCCNC(=O)[C@@]2(C)CCC[C@]3(C)c4cc(O)ccc4CC[C@@H]23)CCC[C@]2(C)c3cc(O)ccc3CC[C@@H]12.O=C(O)C(F)(F)F.O=C(O)C(F)(F)F

>  <MIC>
> 32.5 µM

$$$$
>  <SUBSTANCE SMILES>
C[C@]1(C(=O)NCCCNCCCCCCCCCCCCN)CCC[C@]2(C)c3cc(OC(=O)NCCCNCCCCCCCCCCCCN)ccc3CC[C@@H]12.O=C(O)C(F)(F)F.O=C(O)C(F)(F)F.O=C(O)C(F)(F)F.O=C(O)C(F)(F)F

>  <MIC>
12.8 µM

$$$$
